# systemTested: hCB2 (Homo sapiens, UniProt P34972)
# Sequence (P34972 whole entry): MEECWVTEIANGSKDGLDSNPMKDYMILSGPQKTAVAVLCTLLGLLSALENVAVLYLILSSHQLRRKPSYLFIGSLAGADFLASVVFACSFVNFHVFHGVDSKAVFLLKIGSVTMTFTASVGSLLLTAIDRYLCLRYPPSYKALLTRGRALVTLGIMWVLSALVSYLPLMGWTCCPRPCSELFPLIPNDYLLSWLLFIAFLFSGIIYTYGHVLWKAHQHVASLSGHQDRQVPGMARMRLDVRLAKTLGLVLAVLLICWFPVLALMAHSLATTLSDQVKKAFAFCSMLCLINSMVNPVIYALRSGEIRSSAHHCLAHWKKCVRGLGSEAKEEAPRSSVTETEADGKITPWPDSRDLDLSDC
# measurementDescription: bioSens-All ebBRET effector biosensor signaling profiling, HEK293
# Type: cell-based
# Set-up: host or cells: HEK293 (HEK293SL clone), transient
# measurementSetup: hCB2 Gz pEC50 [95% CI]
readout: pEC50
pEC50 field: float, defined as -log10 of concentration (mol/L).

# pEC50 (compound: COC(=O)[C@@](C)(NC(=O)c1cc(C)n(-c2cccc(C(F)(F)F)c2)n1)c1cccs1 ) is 8.58

###

# systemTested: hCB1 (Homo sapiens)
# Sequence (P21554 whole entry): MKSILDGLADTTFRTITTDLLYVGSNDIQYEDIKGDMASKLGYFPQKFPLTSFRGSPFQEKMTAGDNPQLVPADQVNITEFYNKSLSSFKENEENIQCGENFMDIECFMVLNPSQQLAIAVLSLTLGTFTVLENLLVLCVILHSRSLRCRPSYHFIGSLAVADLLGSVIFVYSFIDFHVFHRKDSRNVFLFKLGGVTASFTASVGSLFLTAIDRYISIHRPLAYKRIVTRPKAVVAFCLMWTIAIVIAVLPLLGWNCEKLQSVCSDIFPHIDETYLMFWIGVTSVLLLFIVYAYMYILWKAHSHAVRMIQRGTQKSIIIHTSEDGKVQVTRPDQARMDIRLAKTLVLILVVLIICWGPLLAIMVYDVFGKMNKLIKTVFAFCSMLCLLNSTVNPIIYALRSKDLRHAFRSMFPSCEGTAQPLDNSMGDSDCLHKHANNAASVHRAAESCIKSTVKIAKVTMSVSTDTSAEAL
# measurementDescription: bioSens-All ebBRET effector biosensor signaling profiling, HEK293
# Assay type: cell-based
# Design: host or cells: HEK293 (HEK293SL clone), transient
# measurementSetup: hCB1 Gz pEC50 [95% CI]
Below, each entry is listed alongside its reported pEC50.
Expect pEC50 as a plain number equal to -log10 of the molar concentration.

compound	pEC50
Cc1cc(C(=O)N2CC3(CCC3)[C@H]2[C@@H]2CCCO2)nn1-c1cccc(C(F)(F)F)c1 [‘3737a]	5.60

# context switch: different compound, same pEC50
The compound listed as Cc1cc(C(=O)NC(c2ccccc2)c2ccco2)nn1-c1cccc(C(F)(F)F)c1 (centres unmarked) shows pEC50 equal to 6.70
